molecular target: T1, VEGF165 (UniProt P15692-4 27-191, biotinylated in the ELISA of Example 4 (site not stated)); experiment: SPR (ProteOn), VEGF165 immobilized, multi-trace 50-0.195 nM, 25 C
T1 construct: also called biotinylated VEGF165; soluble VEGF
T1 sequence (P15692 other isoform, or with tags, fused parts or gaps limits assumed): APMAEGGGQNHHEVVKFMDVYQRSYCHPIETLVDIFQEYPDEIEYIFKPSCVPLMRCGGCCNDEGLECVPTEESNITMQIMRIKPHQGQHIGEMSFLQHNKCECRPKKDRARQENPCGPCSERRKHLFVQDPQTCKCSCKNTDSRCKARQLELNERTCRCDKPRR
ASSAY_METRIC: kon (M⁻¹ s⁻¹)
Answers are plain numbers, in M⁻¹ s⁻¹.

BINDER | kon, M⁻¹ s⁻¹
2-in-1 DARPin 11 (SEQ ID NO: 6) (designed binder, N3C mono-domain; purified by its His-tag) DLDKKLLEAARAGQDDEVRILLKAGADVNAKDSTGWTPLHLAAPWGHPEIVEVLLKAGADVNAKDVYGWTPLHIAAASGHLEIVEVLLKAGADVNAKDWLGWTPLHLAASHGHLEIVEVLLKAGADVNAQDKSGKTPADLAARAGHQDIAEVLQKAA | 1.38e+06

For each of the binders below, state kon.
1. 2-in-1 DARPin 13 (SEQ ID NO: 8) (designed binder, N3C mono-domain; purified by its His-tag) DLDKKLLEAARAGQDDEVRILLKAGADVNAKDSTGWTPLHLAAPWGHPEIVEVLLKAGADVNAKDFYGWTPLHLAAAAGHLEIVEVLLKAGADVNAKDWLGWTPLHLAASHGHLEIVEVLLKAGADVNAQDKSGKTPADLAARAGHQDIAEVLQKAA
2. 2-in-1 DARPin 15 (SEQ ID NO: 9) (designed binder, N3C mono-domain; purified by its His-tag) DLDKKLLEAARAGQDDEVRILLKAGADVNAKDSTGWTPLHLAAPWGHPEIVEVLLKAGADVNAKDFQGWTPLHLAAAAGHLEIVEVLLKAGADVNAKDWLGWTPLHLAASHGHLEIVEVLLKAGADVNAQDKSGKTPADLAARAGHQDIAEVLQKAA
3. 2-in-1 DARPin 20 (SEQ ID NO: 13) (designed binder, N4C mono-domain; purified by its His-tag) DLDKKLLEAARAGQDDEVRILLKAGADVNAKDSTGWTPLHLAAPWGHPEIVEVLLKAGADVNAKDFQGWTPLHLAAAAGHLEIVEVLLKAGADVNAKDVYGWTPLHLAAAAGHLEIVEVLLKAGADVNAKDWLGWTPLHLAASHGHLEIVEVLLKAGADVNAQDKSGKTPADLAARAGHQDIAEVLQKAA

1: 3.29e+06; 2: 4.11e+06; 3: 1.29e+06

For 2-in-1 DARPin 17 (SEQ ID NO: 10) (designed binder, N3C mono-domain; purified by its His-tag) DLGKKLLQAARAGQLDEVRELLKAGADVNAKDSTGWTPLHLAAPWGHPEIVEVLLKAGADVNAKDFQGWTPLHLAAAAGHLEIVEVLLKAGADVNAKDWLGWTPLHLAASHGHLEIVEVLLKAGADVNAQDKSGKTPADLAARAGHQDIAEVLQKAA , write its kon.
4.63e+06
